Measured pIC50, listed per entry for reference.
Target: Nicotinic acetylcholine receptor alpha4/beta2/alpha5 (Homo sapiens, UniProt P17787+P30532+P43681)
Sequence (P17787 whole entry): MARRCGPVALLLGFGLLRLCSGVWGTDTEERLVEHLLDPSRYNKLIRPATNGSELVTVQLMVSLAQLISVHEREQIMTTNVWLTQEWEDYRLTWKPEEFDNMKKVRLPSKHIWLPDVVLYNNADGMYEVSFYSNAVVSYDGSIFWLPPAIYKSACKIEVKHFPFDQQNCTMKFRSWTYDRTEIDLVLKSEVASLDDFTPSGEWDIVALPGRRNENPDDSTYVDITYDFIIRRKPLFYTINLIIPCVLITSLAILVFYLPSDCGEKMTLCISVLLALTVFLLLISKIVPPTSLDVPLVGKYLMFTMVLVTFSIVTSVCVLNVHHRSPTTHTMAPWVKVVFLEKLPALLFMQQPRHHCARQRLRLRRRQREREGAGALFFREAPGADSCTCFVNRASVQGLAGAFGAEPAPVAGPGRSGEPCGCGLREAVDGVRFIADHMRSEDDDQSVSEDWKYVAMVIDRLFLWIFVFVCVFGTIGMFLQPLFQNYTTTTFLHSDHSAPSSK
Sequence (P43681 whole entry): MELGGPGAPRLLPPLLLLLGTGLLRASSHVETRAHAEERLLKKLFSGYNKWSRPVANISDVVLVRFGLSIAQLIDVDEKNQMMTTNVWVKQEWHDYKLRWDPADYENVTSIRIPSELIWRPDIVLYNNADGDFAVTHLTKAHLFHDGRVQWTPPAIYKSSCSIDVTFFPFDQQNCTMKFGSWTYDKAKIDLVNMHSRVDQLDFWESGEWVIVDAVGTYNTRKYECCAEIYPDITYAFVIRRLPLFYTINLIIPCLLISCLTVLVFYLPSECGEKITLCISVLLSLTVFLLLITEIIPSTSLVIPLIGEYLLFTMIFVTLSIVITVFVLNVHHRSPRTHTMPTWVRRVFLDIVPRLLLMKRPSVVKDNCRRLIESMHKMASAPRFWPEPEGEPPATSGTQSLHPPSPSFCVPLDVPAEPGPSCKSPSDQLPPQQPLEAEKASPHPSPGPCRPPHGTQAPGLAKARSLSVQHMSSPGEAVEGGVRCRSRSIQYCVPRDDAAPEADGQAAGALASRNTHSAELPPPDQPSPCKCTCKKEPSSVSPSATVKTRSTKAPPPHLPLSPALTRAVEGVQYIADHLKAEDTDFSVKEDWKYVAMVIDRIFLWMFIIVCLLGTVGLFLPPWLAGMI
Sequence (P30532 whole entry): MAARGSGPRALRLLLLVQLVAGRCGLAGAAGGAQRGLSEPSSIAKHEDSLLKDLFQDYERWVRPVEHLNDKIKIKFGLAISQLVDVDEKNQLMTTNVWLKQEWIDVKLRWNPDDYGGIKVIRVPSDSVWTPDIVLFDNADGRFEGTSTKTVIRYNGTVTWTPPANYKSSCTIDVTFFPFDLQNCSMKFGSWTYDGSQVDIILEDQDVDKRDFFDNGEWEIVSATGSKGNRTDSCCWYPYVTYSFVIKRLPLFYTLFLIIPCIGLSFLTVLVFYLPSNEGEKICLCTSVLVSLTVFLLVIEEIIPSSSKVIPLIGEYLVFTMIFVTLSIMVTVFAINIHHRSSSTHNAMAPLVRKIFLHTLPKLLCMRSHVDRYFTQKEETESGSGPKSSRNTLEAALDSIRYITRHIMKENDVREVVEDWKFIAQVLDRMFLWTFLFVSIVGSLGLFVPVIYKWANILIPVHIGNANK
Test: Antagonist activity at (alpha4beta2)2alpha5 nAChR (unknown origin) expressed in Xenopus oocytes assessed as inhibition of acetylcholine-induced current after 2 mins by two-electrode voltage clamp assay
pIC50: −log10 of the molar value.
Property measured: pIC50

[
  {
    "Smiles structure": "CN1CCC[C@H]1COC(=O)c1ccc(OCc2ccccc2)cc1",
    "Value observed": 4.75
  },
  {
    "Smiles structure": "CN1CCC[C@H]1COC(=O)c1ccccc1",
    "Value observed": 4.28
  },
  {
    "Smiles structure": "CN1CCC[C@H]1COC(=O)c1ccc(Cl)cc1",
    "Value observed": 5.22
  },
  {
    "Smiles structure": "CN1CCC[C@H]1COC(=O)c1cccc(N)c1",
    "Value observed": 3.32
  }
]

---

Target: Neuronal acetylcholine receptor; alpha4/beta2 (Homo sapiens, UniProt P17787+P43681)
Sequence (P17787 whole entry): as the sequence (P17787 whole entry) above
Sequence (P43681 whole entry): as the sequence (P43681 whole entry) above
Experiment: Antagonist activity at (alpha4beta2)2alpha4 nAChR (unknown origin) expressed in Xenopus oocytes assessed as inhibition of acetylcholine-induced current after 2 mins by two-electrode voltage clamp assay
Assay type: cell-based, Oocyte
pIC50: −log10 of the molar value.

[
  {
    "Smiles structure": "CN1CCC[C@H]1COC(=O)c1ccccc1",
    "pIC50": 3.50
  },
  {
    "Smiles structure": "CN1CCC[C@H]1COC(=O)c1cccc(N)c1",
    "pIC50": 5.99
  },
  {
    "Smiles structure": "CN1CCC[C@H]1COC(=O)c1ccc(Cl)cc1",
    "pIC50": 4.02
  },
  {
    "Smiles structure": "CN1CCC[C@H]1COC(=O)c1ccc(OCc2ccccc2)cc1",
    "pIC50": 5.44
  }
]

---

Biological target: Neuronal acetylcholine receptor; alpha4/beta2 (Homo sapiens, UniProt P17787+P43681)
Experiment: Displacement of [3H]cytisine from human alpha4beta2 nAChR overexpressed in human SHEP cells after 75 mins by liquid scintillation spectrometric analysis

[
  {
    "Smiles structure": "CN1CCC[C@H]1COC(=O)c1ccc(Cl)nc1",
    "Ki / nM": 151
  },
  {
    "Smiles structure": "CN1CCC[C@H]1COC(=O)c1ccc(OCc2ccccc2)nc1",
    "Ki / nM": 45.5
  },
  {
    "Smiles structure": "CN1CCC[C@H]1COC(=O)c1cnc2ccccc2c1",
    "Ki / nM": 217
  },
  {
    "Smiles structure": "CN1CCC[C@H]1COC(=O)c1ccc(OCc2ccccc2)cc1",
    "Ki / nM": 1.2
  },
  {
    "Smiles structure": "CN1CCC[C@H]1COC(=O)c1ccccc1",
    "Ki / nM": 23.4
  },
  {
    "Smiles structure": "CN1CCC[C@H]1COC(=O)c1ccc(Br)cc1",
    "Ki / nM": 22.4
  },
  {
    "Smiles structure": "CN1CCC[C@H]1COC(=O)c1ccc(Cl)cc1",
    "Ki / nM": 11.2
  },
  {
    "Smiles structure": "CN1CCC[C@H]1COC(=O)c1cccc([N+](=O)[O-])c1",
    "Ki / nM": 460
  },
  {
    "Smiles structure": "CN1CCC[C@H]1COC(=O)c1cccc(N)c1",
    "Ki / nM": 8.1
  }
]
